Assay: Solubility in aqueous buffer with 10% DMSO
Type: physicochemical
Conditions: pH 7.4, aqueous with cosolvent or surfactant or cyclodextrin, read-out: soluble at concentration
assay.metric: solubility (mM)
Respond with the bare value in mM.

Task item: For the molecule shown here, O=C(O)CC[C@H](NC(=O)c1cccc2ccccc12)C(=O)Nc1ccccc1Oc1ccccc1 [AOH1160LE] , give the reported solubility.
Reply: 4

----------
System: H1753
Experiment: Cell growth IC50, screening of AOH1160 analogs
Assay type: cell-based
Details: FIG. 26; H1752; read-out: IC50
Protocol: FIG. 29. IC50 data for select compounds. The indicated cell lines were seeded at 10^4 cells per well in a 96 well plate. After allowing to attach to the plate overnight, cells were treated with various concentrations of the indicated compounds in triplicates for 72 hrs. The cell growth was measured by an SRB assay. […] The IC50 was calculated by the Prism program.
assay.metric: pIC50
Reminder that pIC50 means the negative base-10 logarithm of the concentration expressed in mol/L.

Task item: For the molecule shown here, COc1cccc(Oc2ccccc2NC(=O)[C@H](C)NC(=O)c2cccc3ccccc23)c1 [AOH1996LA] , give the reported pIC50.
Reply: 5.80

----------
Test system: SK-MEL-28
Test: Cell growth IC50, screening of AOH1160 analogs
Format: cell-based
Conditions: Homo sapiens
assay.metric: IC50 (nM)
Respond with the bare value in nM.

Task item: Item: O=C(CNC(=O)c1cccc2ccccc12)Nc1ccccc1Sc1ccccc1 [AOH1160S] Test system: SK-MEL-28 Read-out: IC50 Value: ?
Reply: 340

----------
Assay: Cell growth IC50, screening of AOH1160 analogs (cell line not given)
Assay type: cell-based
Settings: FIG. 25, read-out: IC50
assay.metric: IC50

Task item: For the compound shown here, C[C@H](NC(=O)c1cccc2ccccc12)C(=O)Nc1ccccc1Oc1ccccc1 [AOH1160LA] , give the reported IC50.
Reply: ~3 µM

Reference for the values: patent US20250171404A1
